Numbers sourced from a melting point compilation (Tetko et al.; mined from patent text by program, amines drawn as free bases though some values may be those of a salt).

What melting point was measured for each of the following?

response.value for COC(=O)C1=C(C)NC(C)=C(C(=O)OC(C)CCl)C1c1cccc([N+](=O)[O-])c1 (centres undefined) (field: melting point) = 95 to 102 °C

According to the records, this compound CC(C)CN(CC(O)C(Cc1ccccc1)NC(=O)C(CC(N)=O)NC(=O)c1ccc2ccccc2n1)C(=O)NC(C)(C)C (centres undefined) displays melting point of 107 to 110 °C

GET /value?item= "O=C(c1ccc(Cl)cc1)c1cccc(O)c1" &field=melting point returns 154 °C

Quick note, melting point for "COCCN1C(=O)CCCc2c1ccc(Nc1ncc(Cl)c(Nc3ccc(N4CCOCC4)cc3OC)n1)c2OC" landed at 136 to 138 °C
